- Target of assay: KRAS^G12C-SOS1 (Homo sapiens (Human), UniProt P01116, G12C)
- Sequence (P01116-2 other isoform, or with tags, fused parts or gaps G12C): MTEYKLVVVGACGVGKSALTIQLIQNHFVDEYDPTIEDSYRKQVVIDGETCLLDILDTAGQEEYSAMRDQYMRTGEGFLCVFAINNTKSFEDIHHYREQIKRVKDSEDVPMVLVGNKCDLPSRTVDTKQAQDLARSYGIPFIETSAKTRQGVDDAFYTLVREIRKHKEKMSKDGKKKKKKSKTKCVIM
- Test protocol: HTRF KRAS G12C/SOS1 binding assay
- Run parameters: Table 5
Quantity name: IC50 (nM)

> print(dat)
                              line.notation  quantity.name  result.units  assay.result
1  CC(=O)/C=C/C(=O)N1CCN(c2ncnc3ccc(-c4cnc(Cl)c(NS(=O)(=O)c5c(F)cccc5F)c4)cc23)[C@@H](C)C1           IC50            nM           219
2  COc1ncc(-c2ccc3ncnc(C4CCN(C(=O)/C=C/C(C)=O)CC4)c3n2)cc1NS(=O)(=O)c1c(F)cc(F)cc1F           IC50            nM           462
3  COc1ncc(-c2ccc3ncnc(N4CCN(C(=O)/C=C/C(C)=O)[C@H](C)C4)c3n2)cc1NS(=O)(=O)c1ccccc1F           IC50            nM           294
4  COc1ncc(-c2ccc3ncnc(N4CCN(C(=O)/C=C/C(C)=O)CC4)c3n2)cc1NS(=O)(=O)c1c(F)cncc1F           IC50            nM           131
5  COc1ncc(-c2ccc3ncnc(N4CCN(C(=O)/C=C/C(C)=O)CC4)c3c2)cc1NS(=O)(=O)c1ccc(F)cc1F           IC50            nM           323
6  COc1ncc(-c2ccc3ncnc(N4CCN(C(=O)/C=C/C(C)=O)CC4)c3c2)cc1NS(=O)(=O)c1ncc(Cl)s1           IC50            nM           362
